Origin of the recorded values: paper PMC9887672

- Tested on: uHeart 3D cardiac microtissues (h-iPSC-CMs and dermal fibroblasts in fibrin)
- PROTOCOL: Drug screening on uHeart: field potential recording (FPDcF, BP, AMP, arrhythmic events, beating cessation)
- STUDY_CONDITIONS: score vs ratio effective concentration/fETPC, Figure 6D
METRIC_NAME: TdP risk category proposed from uHeart score

1. COc1cc2nc(N(C)CCCNC(=O)C3CCCO3)nc(N)c2cc1OC (stereo not drawn); low-risk
2. CC(=O)Oc1ccccc1C(=O)O; low-risk
3. CC(C)NCC(O)c1ccc(NS(C)(=O)=O)cc1 (stereo not drawn); high risk
4. COc1cc(N)c(Cl)cc1C(=O)NC1CCN(CCCOc2ccc(F)cc2)CC1OC (stereo not drawn) [Cisapride]; high risk
5. CC(C)(C)c1ccc(C(O)CCCN2CCC(C(O)(c3ccccc3)c3ccccc3)CC2)cc1 (stereo not drawn); high risk
6. C=C[C@H]1C[N@@]2CC[C@H]1C[C@@H]2[C@@H](O)c1ccnc2ccc(OC)cc12; high risk
7. CN(CCOc1ccc(NS(C)(=O)=O)cc1)CCc1ccc(NS(C)(=O)=O)cc1 [Dofetilide]; high risk

Now consider a different molecule.
Request: GET TdP risk category proposed from uHeart score | system: uHeart 3D cardiac microtissues (h-iPSC-CMs and dermal fibroblasts in fibrin) | item: Cc1cccc(C)c1OCC(C)N (stereo not drawn)
Response: low-risk
